All figures here come from patent US20150218212A1.

tested on: HCT-15; assay: NCI screening panel, HCT-15 (Colon Cancer); type: cell-based, human
Overview of recorded Log10LC50 for various compounds

[[record]]
structure_smiles = "CC(C)C[C@H](NC(=O)[C@H](COC(F)F)NC(=O)[C@H](COC(F)F)NC(=O)[C@H](COC(F)F)NC(=O)CN1CCOCC1)C(=O)[C@@]1(C)CO1"
reported_result = ">−4.00"

[[record]]
structure_smiles = "CC(C)C[C@H](NC(=O)[C@H](COC(F)F)NC(=O)CN1CCOCC1)C(=O)N[C@@H](COC(F)F)C(=O)N[C@@H](Cc1ccccc1)C(=O)[C@@]1(C)CO1"
reported_result = ">−4.00"

[[record]]
structure_smiles = "CC(C)C[C@H](NC(=O)[C@H](COC(F)F)NC(=O)CN1CCOCC1)C(=O)N[C@@H](Cc1ccccc1)C(=O)N[C@@H](CC(C)C)C(=O)[C@@]1(C)CO1"
reported_result = ">−4.00"

[[record]]
structure_smiles = "CC(C)C[C@H](NC(=O)[C@H](COC(F)F)NC(=O)[C@H](COC(F)F)NC(=O)[C@H](CCc1ccccc1)NC(=O)CN1CCOCC1)C(=O)[C@@]1(C)CO1"
reported_result = ">−4.00"


Item CC(C)C[C@H](NC(=O)[C@H](Cc1ccccc1)NC(=O)[C@H](COC(F)F)NC(=O)[C@H](COC(F)F)NC(=O)CN1CCOCC1)C(=O)[C@@]1(C)CO1 with HCT-15 - Log10LC50? >−4.00

# value lookup — system HCT-15, readout Log10LC50, item CC(C)C[C@H](NC(=O)[C@H](COC(F)F)NC(=O)CN1CCOCC1)C(=O)N[C@@H](Cc1ccccc1)C(=O)N[C@@H](Cc1ccccc1)C(=O)[C@@]1(C)CO1 >−4.00

Quick check: Log10LC50 on HCT-15, item CC(C)C[C@H](NC(=O)[C@H](COC(F)F)NC(=O)CN1CCOCC1)C(=O)N[C@@H](COC(F)F)C(=O)N[C@@H](CC(C)C)C(=O)[C@@]1(C)CO1 ? >−4.00

###

Target: chymotrypsin-like (CT-L) proteasome activity (Homo sapiens, UniProt P20618+P28074)
Sequence (P28074 60-263): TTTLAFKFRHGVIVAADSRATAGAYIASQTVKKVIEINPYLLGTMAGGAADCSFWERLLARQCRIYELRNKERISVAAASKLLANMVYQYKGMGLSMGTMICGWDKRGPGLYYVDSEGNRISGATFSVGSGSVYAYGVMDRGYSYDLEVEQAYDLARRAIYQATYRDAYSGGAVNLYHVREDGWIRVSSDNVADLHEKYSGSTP
Sequence (P20618 29-241): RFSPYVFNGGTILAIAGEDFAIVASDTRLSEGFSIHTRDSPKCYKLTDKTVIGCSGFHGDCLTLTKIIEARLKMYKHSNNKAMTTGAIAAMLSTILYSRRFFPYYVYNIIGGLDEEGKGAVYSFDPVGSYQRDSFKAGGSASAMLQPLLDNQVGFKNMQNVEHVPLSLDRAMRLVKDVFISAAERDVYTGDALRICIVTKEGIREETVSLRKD
Experiment: Proteasome enzymatic activity (tumor cell lysates), CT-L, OCI-AML-2
Type: biochemical
Settings: OCI-AML-2, mean ± standard deviation
ENDPOINT LABEL: IC50 (nM)
Just the number please, in nM, no unit attached.

Query (compound): CC(C)C[C@H](NC(=O)[C@H](Cc1ccccc1)NC(=O)[C@H](COC(F)F)NC(=O)[C@H](COC(F)F)NC(=O)CN1CCOCC1)C(=O)[C@@]1(C)CO1 [Example 11] ; field requested: IC50 30.5

IC50 lookup needed for CC(C)C[C@H](NC(=O)[C@H](COC(F)F)NC(=O)CN1CCOCC1)C(=O)N[C@@H](COC(F)F)C(=O)N[C@@H](CC(C)C)C(=O)[C@@]1(C)CO1 [Example 1] , thanks. 39

What value of IC50 has been reported for the following compound? CC(C)C[C@H](NC(=O)[C@H](COC(F)F)NC(=O)CN1CCOCC1)C(=O)N[C@@H](COC(F)F)C(=O)N[C@@H](Cc1ccccc1)C(=O)[C@@]1(C)CO1 [Example 4] 20.9

// returns reported IC50 for input CC(C)C[C@H](NC(=O)[C@H](COC(F)F)NC(=O)CN1CCOCC1)C(=O)N[C@@H](Cc1ccccc1)C(=O)N[C@@H](Cc1ccccc1)C(=O)[C@@]1(C)CO1 [Example 3] 30

###

Test system: HCT-116
Experiment: NCI screening panel, HCT-116 (Colon Cancer)
Assay type: cell-based, human
Procedure: Representative compounds of Formula I were screened using the National Cancer Institute (NCI) screening panel, which consists of a panel of human tumor cell lines, representing leukemia, melanoma, and cancers of the lung, colon, ovary, breast, prostate and renal system. […] Three dose response parameters are calculated for each experimental agent. […] The drug concentration resulting in total growth inhibition (TGI) is calculated from Ti=Tz. […]
Lab note: anything with Log10LC50 at or over -5 counts as 1; the rest go in 0.

[[record]]
structure_smiles = "CC(C)C[C@H](NC(=O)[C@H](COC(F)F)NC(=O)CN1CCOCC1)C(=O)N[C@@H](COC(F)F)C(=O)N[C@@H](Cc1ccccc1)C(=O)[C@@]1(C)CO1"
class_label = 1

[[record]]
structure_smiles = "CC(C)C[C@H](NC(=O)[C@H](COC(F)F)NC(=O)CN1CCOCC1)C(=O)N[C@@H](Cc1ccccc1)C(=O)N[C@@H](CC(C)C)C(=O)[C@@]1(C)CO1"
class_label = 0

[[record]]
structure_smiles = "CC(C)C[C@H](NC(=O)[C@H](COC(F)F)NC(=O)CN1CCOCC1)C(=O)N[C@@H](Cc1ccccc1)C(=O)N[C@@H](Cc1ccccc1)C(=O)[C@@]1(C)CO1"
class_label = 1


Note: attention shifts to another entry.
Exam item: decide whether the reported Log10LC50 for CC(C)C[C@H](NC(=O)[C@H](COC(F)F)NC(=O)[C@H](COC(F)F)NC(=O)[C@H](COC(F)F)NC(=O)CN1CCOCC1)C(=O)[C@@]1(C)CO1 is at least -5. 1

###

test system: NCI-H460; test: NCI screening panel, NCI-H460 (Non-Small Cell Lung Cancer); assay type: cell-based, human
Quick reference: Log10GI50 of the listed items.
Enter the number alone.

[[record]]
structure_smiles = "CC(C)C[C@H](NC(=O)[C@H](COC(F)F)NC(=O)CN1CCOCC1)C(=O)N[C@@H](COC(F)F)C(=O)N[C@@H](CC(C)C)C(=O)[C@@]1(C)CO1"
endpoint_label = "Log10GI50"
reported_result = "−7.30"


Looking for the measured Log10GI50 of CC(C)C[C@H](NC(=O)[C@H](Cc1ccccc1)NC(=O)[C@H](COC(F)F)NC(=O)[C@H](COC(F)F)NC(=O)CN1CCOCC1)C(=O)[C@@]1(C)CO1 , can you help? −7.29

Look at this molecule and give its reported Log10GI50. CC(C)C[C@H](NC(=O)[C@H](COC(F)F)NC(=O)CN1CCOCC1)C(=O)N[C@@H](Cc1ccccc1)C(=O)N[C@@H](Cc1ccccc1)C(=O)[C@@]1(C)CO1 −7.43

Fill in: Log10GI50 of CC(C)C[C@H](NC(=O)[C@H](COC(F)F)NC(=O)CN1CCOCC1)C(=O)N[C@@H](Cc1ccccc1)C(=O)N[C@@H](CC(C)C)C(=O)[C@@]1(C)CO1 is ___ −7.37

Give its Log10GI50 value. Item: CC(C)C[C@H](NC(=O)[C@H](COC(F)F)NC(=O)[C@H](COC(F)F)NC(=O)[C@H](COC(F)F)NC(=O)CN1CCOCC1)C(=O)[C@@]1(C)CO1 −6.50

Which Log10GI50 reading was recorded for the molecule CC(C)C[C@H](NC(=O)[C@H](COC(F)F)NC(=O)CN1CCOCC1)C(=O)N[C@@H](COC(F)F)C(=O)N[C@@H](Cc1ccccc1)C(=O)[C@@]1(C)CO1 ? −6.84

# Log10GI50 lookup, item CC(C)C[C@H](NC(=O)[C@H](COC(F)F)NC(=O)[C@H](COC(F)F)NC(=O)[C@H](CCc1ccccc1)NC(=O)CN1CCOCC1)C(=O)[C@@]1(C)CO1 −7.28

###

tested on: A549/ATCC; test: NCI screening panel, A549/ATCC (Non-Small Cell Lung Cancer); assay type: cell-based, human
Parameter Log10GI50: see the listing below.
Please give the numeric answer without any surrounding text.

[[record]]
structure_smiles = "CC(C)C[C@H](NC(=O)[C@H](COC(F)F)NC(=O)[C@H](COC(F)F)NC(=O)[C@H](COC(F)F)NC(=O)CN1CCOCC1)C(=O)[C@@]1(C)CO1"
reported_result = "−6.99"

[[record]]
structure_smiles = "CC(C)C[C@H](NC(=O)[C@H](COC(F)F)NC(=O)CN1CCOCC1)C(=O)N[C@@H](Cc1ccccc1)C(=O)N[C@@H](CC(C)C)C(=O)[C@@]1(C)CO1"
reported_result = "−7.52"

[[record]]
structure_smiles = "CC(C)C[C@H](NC(=O)[C@H](Cc1ccccc1)NC(=O)[C@H](COC(F)F)NC(=O)[C@H](COC(F)F)NC(=O)CN1CCOCC1)C(=O)[C@@]1(C)CO1"
reported_result = "−7.40"


Quick check: Log10GI50 of CC(C)C[C@H](NC(=O)[C@H](COC(F)F)NC(=O)[C@H](COC(F)F)NC(=O)[C@H](CCc1ccccc1)NC(=O)CN1CCOCC1)C(=O)[C@@]1(C)CO1 ? −7.43

I have this compound here, CC(C)C[C@H](NC(=O)[C@H](COC(F)F)NC(=O)CN1CCOCC1)C(=O)N[C@@H](COC(F)F)C(=O)N[C@@H](Cc1ccccc1)C(=O)[C@@]1(C)CO1 , and I need its recorded Log10GI50. −7.38

Give the measured Log10GI50 of CC(C)C[C@H](NC(=O)[C@H](COC(F)F)NC(=O)CN1CCOCC1)C(=O)N[C@@H](Cc1ccccc1)C(=O)N[C@@H](Cc1ccccc1)C(=O)[C@@]1(C)CO1 . −7.65

Need Log10GI50 of CC(C)C[C@H](NC(=O)[C@H](COC(F)F)NC(=O)CN1CCOCC1)C(=O)N[C@@H](COC(F)F)C(=O)N[C@@H](CC(C)C)C(=O)[C@@]1(C)CO1 , thanks. −7.46
